# Experiment description: Determination of aqueous solubility (vortex 1 h at 25 °C, centrifugation, filtration, HPLC)
# Format: physicochemical
# Protocol conditions: double-deionized water, water, thermodynamic from solid; Deionized H2O at pH 7, 25 °C
The compounds listed here are annotated with their solubility at 1 h.
Don't forget the unit after the value.

The compound O=c1cc(-c2ccc(O)cc2)oc2c(C3OC(CO)C(O)C(O)C3O)c(O)cc(OC3OC(CO)C(O)C(O)C3O)c12 (stereo not drawn) [Vitexin-5-O-β-glucoside (2), vitexin-5-O-β-glucoside] showed solubility at 1 h equal to 735 µg/mL

What the record says about O=c1cc(-c2ccc(O)cc2)oc2c([C@@H]3O[C@H](CO)[C@@H](O)[C@H](O)[C@H]3O)c(O)cc(O)c12 [Vitexin, apigenin-8-C-glucoside] : solubility at 1 h is 37.2 µg/mL

Given item O=c1cc(-c2ccc(OC3OC(CO)C(O)C(O)C3O)cc2)oc2c(C3OC(CO)C(O)C(O)C3O)c(O)cc(O)c12 (stereo not drawn) [Vitexin-4′-O-β-glucoside (1), vitexin-4′-O-β-glucoside] , the value recorded as its solubility at 1 h is 941 µg/mL
